- Experimental System: human JAK1 kinase domain (JH1) (Homo sapiens, UniProt P23458)
- Construct: recombinantly generated catalytic kinase (also known as JH1) domain of human JAK1, JAK2, JAK3 and TYK2
- Sequence (P23458 875-1153 limits assumed): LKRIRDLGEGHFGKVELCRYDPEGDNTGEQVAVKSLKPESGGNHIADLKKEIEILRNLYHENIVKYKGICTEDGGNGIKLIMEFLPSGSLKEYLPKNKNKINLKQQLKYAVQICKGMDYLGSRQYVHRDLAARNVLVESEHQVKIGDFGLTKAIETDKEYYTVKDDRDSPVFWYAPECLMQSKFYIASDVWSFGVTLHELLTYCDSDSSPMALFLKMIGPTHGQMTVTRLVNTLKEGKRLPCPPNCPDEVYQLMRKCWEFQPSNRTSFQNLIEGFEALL
- Test Summary: JH1 biochemical assay for JAK1 (ADP-Glo kinase assay, recombinant JH1 catalytic domain, JAK3-342 peptide, 35 μM ATP)
- Condition Description: JAK1 JH1, ADP-Glo
pIC50: −log10 of the molar value. Where a name gives a salt, the structure may show the parent alone.
Measured Metric: pIC50

COCc1cnn(-c2cc3c(N4C[C@@H](C)[C@@](C#N)(C5CC5)C4=O)ccnn3c2)c1	6.00 to 7.00

# query: pIC50 of entry C[C@@H]1CN(c2c[nH]c3ncc(-c4cnn(C)c4)cc23)C(=O)[C@]1(C#N)C1CC1 6.00 to 7.00

Same for C[C@@H]1CN(c2nc(-c3cnc4[nH]ccc4c3)cn3nccc23)C(=O)[C@]1(C#N)C1CC1 > 7.00

Also C[C@@H]1CN(c2nc(-c3ccc(O)nc3)cn3nccc23)C(=O)[C@]1(C#N)C1CC1 [Example 267, trifluoroacetate] , if possible. > 7.00

Another molecule to look at: C[C@@H]1CN(c2nc(-c3cnn(CC(F)F)c3)cc3ncsc23)C(=O)[C@]1(C#N)C1CC1 > 7.00

Same lookup for C[C@@H]1CN(c2nn(-c3cnn(C)c3)c3cnccc23)C(=O)[C@]1(C#N)C1CC1 , please. 6.00 to 7.00

###

- Experimental System: JAK2 kinase activity on STAT5 in TF1 cells (Homo sapiens)
- Sequence (O60674 whole entry): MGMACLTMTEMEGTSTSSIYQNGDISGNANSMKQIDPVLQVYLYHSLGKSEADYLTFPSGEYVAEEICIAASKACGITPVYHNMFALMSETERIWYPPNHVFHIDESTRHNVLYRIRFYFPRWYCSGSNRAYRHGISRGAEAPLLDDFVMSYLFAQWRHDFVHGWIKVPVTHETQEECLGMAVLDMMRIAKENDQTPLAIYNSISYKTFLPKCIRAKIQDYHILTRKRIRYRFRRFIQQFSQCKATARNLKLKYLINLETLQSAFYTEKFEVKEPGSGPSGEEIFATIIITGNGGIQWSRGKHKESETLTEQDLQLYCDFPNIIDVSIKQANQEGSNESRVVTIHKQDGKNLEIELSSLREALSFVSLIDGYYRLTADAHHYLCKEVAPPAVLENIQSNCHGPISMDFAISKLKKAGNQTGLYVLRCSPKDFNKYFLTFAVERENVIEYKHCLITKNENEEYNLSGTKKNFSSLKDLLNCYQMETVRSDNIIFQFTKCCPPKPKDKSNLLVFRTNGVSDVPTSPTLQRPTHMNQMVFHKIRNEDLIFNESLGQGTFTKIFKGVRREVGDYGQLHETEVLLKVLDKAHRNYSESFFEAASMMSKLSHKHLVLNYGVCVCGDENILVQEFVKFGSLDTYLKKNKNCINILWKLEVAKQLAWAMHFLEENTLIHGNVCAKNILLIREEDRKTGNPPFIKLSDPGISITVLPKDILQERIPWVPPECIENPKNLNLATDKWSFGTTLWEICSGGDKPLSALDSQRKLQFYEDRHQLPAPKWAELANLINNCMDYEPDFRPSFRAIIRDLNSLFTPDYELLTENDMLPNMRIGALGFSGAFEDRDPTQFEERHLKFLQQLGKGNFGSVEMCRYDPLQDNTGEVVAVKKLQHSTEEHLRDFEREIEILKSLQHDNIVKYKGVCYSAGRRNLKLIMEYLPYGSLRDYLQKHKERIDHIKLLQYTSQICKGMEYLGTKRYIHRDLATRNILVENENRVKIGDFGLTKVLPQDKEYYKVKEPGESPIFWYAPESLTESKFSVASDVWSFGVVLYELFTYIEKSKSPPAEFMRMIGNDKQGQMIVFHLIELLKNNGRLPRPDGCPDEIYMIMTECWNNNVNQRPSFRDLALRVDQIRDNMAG
- Test Summary: pSTAT5 cell assay (MSD; TF1 cells, 30 ng/mL IL-3 stimulation)
- Condition Description: 30 ng/mL IL-3, 15 minutes
pIC50: −log10 of the molar value.
Measured Metric: pIC50

// worked examples, pIC50 included
Cn1cc(-c2cc3c(N4CC[C@@](C#N)(C5CC5)C4=O)ccnn3c2)c(F)n1	< 5.00
CCOCCn1cc(-c2cc3c(N4C[C@@H](C)[C@@](C#N)(C5CC5)C4=O)ccnn3c2)cn1	5.00 to 5.30
C[C@@H]1CN(c2ncnn3cc(-c4cnn(C)c4)cc23)C(=O)[C@]1(C#N)C1CC1	5.00 to 5.30

Dear colleague, I am looking for the recorded pIC50 of the following molecule: Cc1cc(-c2cc3c(N4C[C@@H](C)[C@@](C#N)(C5CC5)C4=O)ccnn3c2)ccn1 5.30 to 6.00

Now the molecule C[C@@H]1CN(c2ccnn3cc(-c4cnn([C@H]5CC5(F)F)c4)cc23)C(=O)[C@]1(C#N)C1CC1 (single isomer, unassigned) 5.30 to 6.00

###

In this section we review reported IC50 values for a set of molecules.
- Experimental System: human JAK2 kinase domain (JH1) (Homo sapiens)
- Construct: recombinantly generated catalytic kinase (also known as JH1) domain of human JAK1, JAK2, JAK3 and TYK2
- Sequence (O60674 849-1124 limits assumed): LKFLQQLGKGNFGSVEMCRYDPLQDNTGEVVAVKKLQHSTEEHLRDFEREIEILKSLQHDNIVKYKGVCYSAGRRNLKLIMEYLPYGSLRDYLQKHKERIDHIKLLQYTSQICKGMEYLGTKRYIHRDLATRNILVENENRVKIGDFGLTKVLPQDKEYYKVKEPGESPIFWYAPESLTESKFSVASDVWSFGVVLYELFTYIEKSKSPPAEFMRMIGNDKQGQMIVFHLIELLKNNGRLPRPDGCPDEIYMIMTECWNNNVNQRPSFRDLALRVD
- Test Summary: JH1 biochemical assay for JAK2 (ADP-Glo kinase assay, recombinant JH1 catalytic domain, JAK3-974 peptide, 15 μM ATP)
- Condition Description: JH1 kinase domain, ADP-Glo
Counter-ions that a name gives are not always drawn.

Example results:
[2H]C([2H])([2H])n1cc(-c2cc3c(N4C[C@@H](C)[C@@](C#N)(C5CC5)C4=O)ccnn3c2)cn1 [Example 164]	100 to 1000 nM
CC[C@@H]1CN(c2ccnn3cc(-c4cnn(C)c4)cc23)C(=O)[C@@]1(C#N)C1CC1 [Example 26]	> 10000 nM
C[C@@H]1CN(c2ccnn3cc(-c4nc5cnccc5s4)cc23)C(=O)[C@]1(C#N)C1CC1 [Example 102, trifluoroacetate]	1000 to 5000 nM
C[C@@H]1CN(c2nc(-c3cnn([C@H]4CCOC4)c3)cn3ncc(F)c23)C(=O)[C@]1(C#N)C1CC1 [Example 191]	< 100 nM
Cc1nn(C)c(C)c1-c1cn2nccc2c(N2C[C@@H](C)[C@@](C#N)(C3CC3)C2=O)n1 [Example 200]	1000 to 5000 nM

If you can, please state the reported IC50 value of Cn1cc(-c2cc3c(N4CC[C@](C#N)(C5CCC5)C4=O)ccnn3c2)cn1 (single isomer, unassigned) [Example 47] . 5000 to 10000 nM

Try this molecule too: CCn1cc(-c2cn3ncc(F)c3c(N3C[C@@H](C)[C@@](C#N)(C4CC4)C3=O)n2)cn1 [Example 188] < 100 nM
